Tested on: SF-539 CNS
Experiment: NCI-60 one-dose screen, 48 h
Details: 10 µM unless noted
About 83,000 compounds went through this panel and 20% of them were active in at least one assay; those are over-represented in the sample as a whole. Calls of active or inactive are those of the source. Rule for the calls: active = growth percent below 10; inactive = the rest.
Classes used: yes (active), no (inactive)

compound	answer_label
O=c1[nH]n(C(=S)N/N=C/c2ccccc2Cl)c(=O)c2ccccc12	yes
Cc1ccc(C(=O)CSc2nc3ccc(F)cc3c(=O)n2-c2ccc(Cl)cc2)cc1	yes
NS(=O)(=O)c1ccc(-n2cc(-c3cccc(NC(=O)c4cc(N5CCOCC5)cc(C(F)(F)F)c4)c3)nn2)cc1	no
C=C1CCC2C3(C)COC(c4ccccc4)OC3CCC2(C)C1CC(Sc1ccccc1)C1=CCOC1=O (stereo not drawn)	no
N#Cc1c(-c2ccc(Br)cc2)nc2n[nH]c(-c3ccc(Br)cc3)c2c1-c1ccc(C(F)(F)F)cc1	no
O=c1onc(-c2cc3ccccc3nc2Cl)n1-c1cccc2ccccc12	no
COc1cc2c(c(OC)c1OC)C(=O)CC(c1cccc(NC(=O)c3cc(NC(=O)[C@H](CO)NC(=O)OC(C)(C)C)ccc3Cl)c1)O2 (stereo partly drawn)	no
COc1cc2c(c(OC)c1OC)C(=O)CC(c1cccc(NC(=O)c3cc(NC(=O)[C@@H](N)CO)ccc3C)c1)O2 (stereo partly drawn)	no

---

System: HCT-116 colon
Experiment: NCI-60 one-dose screen, 48 h (100 = growth as untreated, 0 = no growth, -100 = all killed)
Conditions: 10 µM unless noted
About 83,000 compounds went through this panel and 20% of them were active in at least one assay; those are over-represented in the sample as a whole.

molecule	growth, %
COc1ccc(C(=O)/C=C/c2cccnc2)cc1S(N)(=O)=O	-18.1
CCOC(=O)C1=C(N)N(c2ccccc2)C2=C(C(=O)CC(C)(C)C2)C1c1ccc(Cl)cc1Cl (stereo not drawn)	13.6
N/C(=N\N=C\c1ccc([N+](=O)[O-])cc1)c1c(N)nc(=S)[nH]c1-c1ccc(Cl)cc1Cl	85.2
CC1=C(C(=O)c2ccccc2)C(c2ccc(-n3cncn3)cc2)n2c(nc3ccccc32)N1 (stereo not drawn)	73
CCCS(=O)(=O)N1CCCC(C(=O)Nc2nc3ccc(NC(=O)c4ccc(F)c(OC)c4F)cc3s2)C1 (stereo not drawn)	31.1
Cn1cc(-c2cc(N)n3nc(-c4cn(C)c5ccccc45)cc3n2)c2cc(Br)ccc21	-92.9
COc1cc2c(c(OC)c1OC)C(=O)CC(c1cccc(NC(=O)c3cc(NC(=O)[C@@H](N)CO)ccc3C)c1)O2 (stereo partly drawn)	116
Brc1ccc(-c2n(Cc3ccc4ccccc4c3)c(-c3ccccc3)c(-c3ccccc3)[n+]2Cc2ccc3ccccc3c2)cc1	-97.9

---

Test system: SK-MEL-5 melanoma
Experiment: NCI-60 one-dose screen, 48 h
Settings: 10 µM unless noted
Compounds without any hit were thinned out: in the full panel of roughly 83,000, 20% have a hit. Calls of active or inactive are those of the source. How the source made its calls: active means growth percent below 10; inactive means the rest.
Classes used: active, inactive

compound	answer_label
O=C(Cn1c(/C=C/c2ccccc2)nc2ccccc2c1=O)Nc1ccc(Cl)cc1	inactive
C/C(=N\N=C\c1cc([N+](=O)[O-])ccc1Cl)c1ccc2c(c1)Nc1ccccc1S2	inactive
Nc1cccc(SCc2cc3ccccc3[nH]c2=O)c1	active
CC(=O)OCC1OC(OC2C(COC(C)=O)OC(n3cc(COc4ccc5ccc(=O)oc5c4)nn3)C(OC(C)=O)C2OC(C)=O)C(OC(C)=O)C(OC(C)=O)C1OC(C)=O (centres undefined)	inactive
COc1ccc(NC(=O)[C@@H](N)Cc2ccccc2)cc1C(=O)Nc1cccc(C2CC(=O)c3c(cc(OC)c(OC)c3OC)O2)c1 (some centres undefined)	inactive
OCC1(CCCc2ccccc2)CCCN(c2nccc3ccccc23)C1 (centres undefined)	active
Nc1nc(-c2ccccc2)c(N=Nc2ccc([N+](=O)[O-])cc2Cl)s1	inactive
Cc1ccc(C(=O)CSc2nc3ccc(F)cc3c(=O)n2-c2ccc(Cl)cc2)cc1	inactive
CC(=O)Nc1ccc(-n2cnc3ccc(-c4ccc(O)cc4)cc32)cc1	inactive
COc1ccc([C@H](C)Nc2nc(Cl)nc3ccccc23)cc1	active
O=S(=O)(Nc1cccc(-n2cnc3cc(-c4ccc(O)cc4)ccc32)c1)C1CC1	inactive
CC1(c2cc3cc(Cl)ccc3oc2=O)NC(=O)c2c(/C=C/C(=O)OC3CC4CCC3(C)C4(C)C)cccc2N1 (centres undefined)	inactive
O=c1oc2ccc(Br)cc2cc1C1=CSc2nc3sc4c(c3c(=O)n2N=C1)CCCC4	inactive
COc1ccc2[nH]cc(-c3nnc(N)nc3-c3cn(C)c4ncc(Br)cc34)c2c1	inactive
COc1cc(C2CC(c3cc(OC)c(OC)c(OC)c3)=NN2c2ccccc2)ccc1OCc1ccc(C)cc1 (centres undefined)	inactive
C=C1CCC2C3(C)COC(c4ccccc4F)OC3CCC2(C)C1CC(O)C1=CCOC1=O (centres undefined)	inactive
COc1ccccc1C(=O)NN1C(=O)/C(=C/C2=Cc3ccccc3OC2)SC1=S	inactive
C#CCOc1cc(N(CC)CC)ccc1C(C(=O)NC(C)(C)C)N(C(=O)C1CCc2cc(F)ccc2O1)c1cc(C)cc(C)c1 (centres undefined)	inactive
CC1=C(C(=O)c2ccccc2)C(c2cccc(Cl)c2Cl)n2c(nc3ccccc32)N1 (centres undefined)	inactive
